Below, each of the molecules is paired with its reported Activity value.
Target: Serine palmitoyltransferase (Sphingomonas paucimobilis) (UniProt Q93UV0)
Sequence (whole entry): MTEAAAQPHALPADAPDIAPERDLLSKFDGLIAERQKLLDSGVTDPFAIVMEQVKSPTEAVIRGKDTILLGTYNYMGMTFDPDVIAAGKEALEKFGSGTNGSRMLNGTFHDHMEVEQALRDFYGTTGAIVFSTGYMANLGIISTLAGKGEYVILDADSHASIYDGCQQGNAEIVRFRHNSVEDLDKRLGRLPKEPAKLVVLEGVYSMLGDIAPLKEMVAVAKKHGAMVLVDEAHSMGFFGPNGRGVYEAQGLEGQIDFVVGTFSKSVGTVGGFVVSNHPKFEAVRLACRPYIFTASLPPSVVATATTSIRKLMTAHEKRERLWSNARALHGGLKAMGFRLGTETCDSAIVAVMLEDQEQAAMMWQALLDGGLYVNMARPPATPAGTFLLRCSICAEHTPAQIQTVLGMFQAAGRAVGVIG
Assay: Reversible inhibition of Sphingomonas paucimobilis recombinant SPT expressed in Escherichia coli BL21(DE3) assessed as restoration of enzyme activity at 5 mM after 30 mins by dialysis technique in presence of PLP relative to control
Design: scale not given: the % may be the effect or the level left
MEASURED PARAMETER: Activity (%)

COMPOUND STRING	MEASURED PARAMETER	OBSERVED MEASUREMENT
N[C@@H](CS)C(=O)O	Activity	83
CC(C)(S)[C@H](N)C(=O)O	Activity	80
N[C@H](CS)C(=O)O	Activity	76
CC(C)(S)[C@@H](N)C(=O)O	Activity	57

---

Target: Serine palmitoyltransferase (Sphingomonas paucimobilis)
Assay: Inhibition of Sphingomonas paucimobilis recombinant SPT expressed in Escherichia coli BL21(DE3) assessed as remaining activity at 5 mM after 30 mins by dialysis technique relative to control
MEASURED PARAMETER: Activity

COMPOUND STRING	MEASURED PARAMETER	OBSERVED MEASUREMENT
CC(C)(S)[C@H](N)C(=O)O	Activity	3%
N[C@H](CS)C(=O)O	Activity	22%
CC(C)(S)[C@@H](N)C(=O)O	Activity	34%
N[C@@H](CS)C(=O)O	Activity	24%
